Every entry's value here was drawn from ChEMBL document CHEMBL3877294.

# key: entry, value: Selectivity ratio
System: Hepatitis C virus subtype 1a
MEASUREMENT NOTES: Selectivity ratio for EC90 for HCV genotype-1a NS5A Y93H mutant to EC90 for HCV genotype-1a NS5A

Solved cases below.
**Q:** Tell me its Selectivity ratio on Hepatitis C virus subtype 1a: COC(=O)N[C@H](C(=O)N1CCC[C@H]1c1ncc(-c2cc(F)c3c(c2)O[C@@H](c2ccc4c(c2)OCCC4)n2c-3cc3cc(-c4cnc([C@@H]5CCCN5C(=O)[C@@H](NC(=O)OC)C(C)C)[nH]4)ccc32)[nH]1)C(C)C
**A:** 167

**Q:** Please look at CCOc1cccc([C@@H]2Oc3cc(-c4cnc([C@@H]5CCCN5C(=O)[C@@H](NC(=O)OC)C(C)C)[nH]4)ccc3-c3cc4cc(-c5cnc([C@@H]6CCCN6C(=O)[C@@H](NC(=O)OC)C(C)C)[nH]5)ccc4n32)c1 and tell me its recorded Selectivity ratio on Hepatitis C virus subtype 1a.
**A:** 800

**Q:** Enter measured Selectivity ratio, system Hepatitis C virus subtype 1a, for the compound shown: COC(=O)N[C@H](C(=O)N1CCC[C@H]1c1ncc(-c2cc(F)c3c(c2)OC(c2ccc(C4CC4)s2)n2c-3cc3cc(-c4cnc([C@@H]5CCCN5C(=O)[C@@H](NC(=O)OC)C(C)C)[nH]4)ccc32)[nH]1)C(C)C (some centres undefined)
**A:** 37

Turning to the following compound.
**Q:** Specify Selectivity ratio for COC(=O)N[C@H](C(=O)N1CCC[C@H]1c1ncc(-c2cc(F)c3c(c2)O[C@@H](c2cnc(C4CC4)s2)n2c-3cc3cc(-c4cnc([C@@H]5CCCN5C(=O)[C@@H](NC(=O)OC)C(C)C)[nH]4)ccc32)[nH]1)C(C)C , system Hepatitis C virus subtype 1a.
**A:** 22

---

Tested on: Huh-7
MEASUREMENT NOTES: Inhibition of HCV genotype-1a NS5A infected in human HuH7 cells by luciferase reporter gene assay
Format: cell-based
EXPERIMENTAL CONTEXT: Hepatitis C virus subtype 1a
QUANTITY KIND: EC90
The answer should read as a number with its unit following.

Field: example entries. Status: answers known.
**Q:** Answer with reported EC90 of CCc1ncc(C2Oc3cc(-c4cnc([C@@H]5CCCN5C(=O)[C@@H](NC(=O)OC)C(C)C)[nH]4)cc(F)c3-c3cc4cc(-c5cnc([C@@H]6CCCN6C(=O)[C@@H](NC(=O)OC)C(C)C)[nH]5)ccc4n32)s1 (stereo not given in full)
**A:** 4 pM

**Q:** Give the reported EC90 for this compound. CCc1ccc([C@@H]2Oc3cc(-c4cnc([C@@H]5CCCN5C(=O)[C@@H](NC(=O)OC)C(C)C)[nH]4)ccc3-c3cc4cc(-c5cnc([C@@H]6CCCN6C(=O)[C@@H](NC(=O)OC)C(C)C)[nH]5)ccc4n32)s1
**A:** 5 pM

**Q:** # return recorded EC90 for input COC(=O)N[C@H](C(=O)N1CCC[C@H]1c1nc(-c2ccc3c(c2)O[C@@H](c2ccccc2)n2c-3cc3cc(-c4c[nH]c([C@@H]5CCCN5C(=O)[C@@H](NC(=O)OC)C(C)C)n4)ccc32)c[nH]1)C(C)C
**A:** 6 pM

**Q:** Return EC90 (reported value) for this compound: COC(=O)N[C@H](C(=O)N1CCC[C@H]1c1ncc(-c2cc(F)c3c(c2)OC(c2ccc(C4CC4(F)F)s2)n2c-3cc3cc(-c4cnc([C@@H]5CCCN5C(=O)[C@@H](NC(=O)OC)C(C)C)[nH]4)ccc32)[nH]1)C(C)C (stereo not given in full)
**A:** 2 pM

Continuing:
**Q:** Recall and state the measured EC90 for COC(=O)N[C@H](C(=O)N1CCC[C@H]1c1ncc(-c2cc(F)c3c(c2)OC(c2ccc(C(C)C)s2)n2c-3cc3cc(-c4cnc([C@@H]5CCCN5C(=O)[C@@H](NC(=O)OC)C(C)C)[nH]4)ccc32)[nH]1)C(C)C (stereo not given in full) .
**A:** 2 pM
